target: MOP (Homo sapiens, UniProt P35372); assay: EPAC cAMP BRET-based biosensor assay, MOP
Sequence (P35372 whole entry): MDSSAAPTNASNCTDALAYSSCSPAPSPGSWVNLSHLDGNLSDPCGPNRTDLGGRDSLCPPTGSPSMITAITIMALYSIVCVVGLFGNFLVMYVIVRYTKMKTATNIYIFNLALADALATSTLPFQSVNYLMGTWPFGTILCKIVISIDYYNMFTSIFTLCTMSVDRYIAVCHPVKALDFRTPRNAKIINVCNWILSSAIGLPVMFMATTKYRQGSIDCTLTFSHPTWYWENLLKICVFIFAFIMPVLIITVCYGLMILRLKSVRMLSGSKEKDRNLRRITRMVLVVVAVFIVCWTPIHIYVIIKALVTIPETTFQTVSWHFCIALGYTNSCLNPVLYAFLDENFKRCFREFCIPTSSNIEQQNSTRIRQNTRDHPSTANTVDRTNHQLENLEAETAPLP
Non-standard residues stand in square brackets, D forms with d. Residues, ends and D or L forms follow the SMILES beside them. Dmt = Cc1cc(O)cc(C)c1C[C@H](N)C(=O)O
Quantity: EC50 (nM)
The response must be a number in nM with no trailing unit.

Problem: Name the recorded EC50 for "C=Cc1ccccc1C[C@H](NC(=O)[C@@H](C)N(C)C(=O)[C@@H](N)Cc1c(C)cc(O)cc1C)C(=O)NCC(N)=O" .
Result: 0.003

Problem: Would you mind doing Cc1cc(O)cc(C)c1C[C@H](N)C(=O)N[C@H](CCCNC(=N)N)C(=O)N[C@@H](Cc1ccccc1)C(=O)NCC(N)=O [Compound 19, Dmt-D-Arg-Phe-Gly-NH2] (H-[Dmt][dR]FG-NH2) as well?
Result: 0.008

Problem: Would you mind doing Cc1cc(O)cc(C)c1C[C@H](N)C(=O)N[C@H](C)C(=O)N[C@@H](Cc1ccccc1)C(=O)NCC(N)=O [Compound 20, Dmt-D-Ala-Phe-Gly-NH2] (H-[Dmt][dA]FG-NH2) as well?
Result: 0.012

Problem: Would you mind doing "Cc1cc(O)cc(C)c1C[C@H](N)C(=O)N[C@H](CCCNC(=N)N)C(=O)N[C@@H](Cc1ccccc1-c1ccc(C(F)(F)F)cc1)C(=O)NCC(N)=O" as well?
Result: 0.12
